experimental_system: UniProt:P06493
Sequence (P06493 whole entry, species assumed): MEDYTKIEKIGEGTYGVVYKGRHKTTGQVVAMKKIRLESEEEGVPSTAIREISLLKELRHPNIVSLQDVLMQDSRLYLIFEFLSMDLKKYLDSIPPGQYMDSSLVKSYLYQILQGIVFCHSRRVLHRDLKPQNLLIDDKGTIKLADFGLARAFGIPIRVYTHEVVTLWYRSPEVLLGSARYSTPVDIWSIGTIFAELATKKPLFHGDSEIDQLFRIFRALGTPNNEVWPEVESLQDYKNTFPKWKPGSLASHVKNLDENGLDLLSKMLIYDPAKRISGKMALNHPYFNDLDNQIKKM
Sequence (P14635 whole entry partner, species assumed): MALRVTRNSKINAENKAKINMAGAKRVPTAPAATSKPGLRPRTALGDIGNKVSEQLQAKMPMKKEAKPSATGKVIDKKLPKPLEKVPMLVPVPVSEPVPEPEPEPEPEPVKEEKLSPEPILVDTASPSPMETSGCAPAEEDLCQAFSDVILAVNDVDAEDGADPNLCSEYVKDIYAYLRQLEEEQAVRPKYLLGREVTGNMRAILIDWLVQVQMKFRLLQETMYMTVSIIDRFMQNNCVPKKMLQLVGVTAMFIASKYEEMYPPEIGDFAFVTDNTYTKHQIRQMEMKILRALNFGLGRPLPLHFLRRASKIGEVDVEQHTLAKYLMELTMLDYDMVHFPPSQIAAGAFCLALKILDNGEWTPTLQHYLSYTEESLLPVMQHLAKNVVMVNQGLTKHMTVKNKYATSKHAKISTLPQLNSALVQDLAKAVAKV
Param label: returns MET when IC50 < 60 nM, returns NOT MET otherwise, including exact equality.

In [3]: df
Out[3]:
                                   molecule  answer_label
0  COC(=O)[C@@]1(N)CC2OC1(C)n1c3ccccc3c3c4c(c5c6ccccc6n2c5c31)C(=O)NC4 (some centres unmarked)       NOT MET
1  CNC(=O)[C@@]1(N)CC2CC1n1c3ccccc3c3c4c(c5c6ccccc6n2c5c31)C(=O)NC4 (some centres unmarked)       NOT MET
2  CNC(=O)[C@@]1(O)CC2CC1n1c3ccccc3c3c4c(c5c6ccccc6n2c5c31)C(=O)NC4 (some centres unmarked)       NOT MET
3  CNC(=O)[C@@]1(N)C[C@H]2O[C@]1(C)n1c3ccccc3c3c4c(c5c6ccccc6n2c5c31)C(=O)NC4           MET
4  CNC(=O)[C@@]1(O)CC2CC1n1c3ccccc3c3c4c(c5c6ccccc6n2c5c31)C(=O)NC4=O (some centres unmarked)       NOT MET

###

Listed compounds paired with reported pIC50
experimental_system: PKC
method: Kinase inhibition under standard conditions, PKC
pIC50: −log10 of the molar value.
readout_kind: pIC50

                                   compound  inequality_sign  obs_value
0  COC(=O)[C@@]1(N)CC2OC1(C)n1c3ccccc3c3c4c(c5c6ccccc6n2c5c31)C(=O)NC4 (some centres unmarked)                <       5.00
1  CNC(=O)[C@@]1(O)CC2CC1n1c3ccccc3c3c4c(c5c6ccccc6n2c5c31)C(=O)NC4=O (some centres unmarked)                =       6.92
2  CNC(=O)[C@@]1(O)CC2CC1n1c3ccccc3c3c4c(c5c6ccccc6n2c5c31)C(=O)NC4 (some centres unmarked)                =       6.68
3  CNC(=O)[C@@]1(N)CC2CC1n1c3ccccc3c3c4c(c5c6ccccc6n2c5c31)C(=O)NC4 (some centres unmarked)                =       6.59
4  CNC(=O)[C@@]1(N)C[C@H]2O[C@]1(C)n1c3ccccc3c3c4c(c5c6ccccc6n2c5c31)C(=O)NC4                =       5.89

###

experimental_system: PKA
method: Kinase inhibition under standard conditions, PKA
readout_kind: IC50 (nM)

                                   molecule  inequality_sign  obs_value
0  COC(=O)[C@@]1(N)CC2OC1(C)n1c3ccccc3c3c4c(c5c6ccccc6n2c5c31)C(=O)NC4 (some centres unmarked)                >      10000
1  CNC(=O)[C@@]1(O)CC2CC1n1c3ccccc3c3c4c(c5c6ccccc6n2c5c31)C(=O)NC4=O (some centres unmarked)                =         78
2  CNC(=O)[C@@]1(N)C[C@H]2O[C@]1(C)n1c3ccccc3c3c4c(c5c6ccccc6n2c5c31)C(=O)NC4                =        300
3  CNC(=O)[C@@]1(N)CC2CC1n1c3ccccc3c3c4c(c5c6ccccc6n2c5c31)C(=O)NC4 (some centres unmarked)                =        440
4  CNC(=O)[C@@]1(O)CC2CC1n1c3ccccc3c3c4c(c5c6ccccc6n2c5c31)C(=O)NC4 (some centres unmarked)                =        550
